- target_system: T1, HLA-A2/E7 (11-19) tetramer (human; HPV 16)
- T1 construct: also called E7(11-19) peptide-MHC tetramer; E7 (11-19)-loaded tetramer
- test_description: tetramer flow cytometry; transfected 1:1 CD4+ and CD4+/CD8+ Jurkat-derived cells;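 also: cells transiently transfected with TCR plasmids, stained 48 h later with HLA-A*02:01 peptide-MHC tetramer plus anti-CD8 antibody, read by flow cytometry to assess CD8-independent tetramer binding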
Below, each entry is listed with its recorded % cells in E7 tet-/CD8+ quadrant.
API: value field is a number in %; no unit string.

Example entries and their recorded answers appear below.
[
  {
    "binder": "TCR 35 (codon optimized, cysteine modified version) (TCR, V domains shown) V domain 1: KDQVFQPSTVASSEGAVVEIFCNHSVSNAYNFFWYLHFPGCAPRLLVKGSKPSQQGRYNMTYERFSSSLLILQVREADAAVYYCAVAGDYKLSFGAGTTVTVRA V domain 2: DSGVTQTPKHLITATGQRVTLRCSPRSGDLSVYWYQQSLDQGLQFLIQYYNGEERAKGNILERFSAQQFPDLHSELNLSSLELGDSALYFCASTTSGDSSYNEQFFGPGTRLTVLE",
    "endpoint_value": 35.1
  },
  {
    "binder": "TCR 49 (codon optimized, cysteine modified version) (TCR, V domains shown) V domain 1: QKEVEQNSGPLSVPEGAIASLNCTYSDRGSQSFFWYRQYSGKSPELIMFIYSNGDKEDGRFTAQLNKASQYVSLLIRDSQPSDSATYLCAVNIGTSGTYKYIFGTGTRLKVLA V domain 2: EPEVTQTPSHQVTQMGQEVILRCVPISNHLYFYWYRQILGQKVEFLVSFYNNEISEKSEIFDDQFSVERPDGSNFTLKIRSTKLEDSAMYFCASTPRYSYEQYFGPGTRLTVTE",
    "endpoint_value": 27.2
  }
]

API: the following record is the query input.
State the recorded % cells in E7 tet-/CD8+ quadrant for this entry: TCR 47 (codon optimized, cysteine modified version) (TCR, V domains shown) V domain 1: QKEVEQNSGPLSVPEGAIASLNCTYSDRGSQSFFWYRQYSGKSPELIMFIYSNGDKEDGRFTAQLNKASQYVSLLIRDSQPSDSATYLCAVNLLSGSARQLTFGSGTQLTVLP V domain 2: EPEVTQTPSHQVTQMGQEVILRCVPISNHLYFYWYRQILGQKVEFLVSFYNNEISEKSEIFDDQFSVERPDGSNFTLKIRSTKLEDSAMYFCAMTGRTTYEQYFGPGTRLTVTE
40.6
